Values from patent US20190241669A1

target: T1, cynomolgus monkey BCMA (cynomolgus monkey, UniProt A0A2K5UD97 1-53); assay: SPR, IgG on chip, cyBCMA analyte
T1 construct: Soluble analyte in SPR; construct not described; also called cyBCMA; Cyno BCMA
T1 sequence (A0A2K5UD97 entry or part of it): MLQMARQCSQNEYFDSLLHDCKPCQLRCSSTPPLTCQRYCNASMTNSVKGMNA
Give koff for every item shown.
Give bare numbers, in s⁻¹.

A02_Rd4_0.6nM_C10 (antibody, V domains shown, IgG) VH: EVQLLESGGGLVQPGGSLRLSCAASGFTFSSYAMNWVRQAPGKGLEWVSAISGWGGSLPYADSVKGRFTISRDNSKNTLYLQMNSLRAEDTAVYYCARYWPMDSWGQGTLVTVSS VL: EIVLTQSPGTLSLSPGERATLSCRASQSVSAQYLAWYQQKPGQAPRLLMYDASIRATGIPDRFSGSGSGTDFTLTISRLEPEDFAVYYCQQYQRWPLTFGQGTKVEIK : 0.00163
COMBO_Rd4_0.6nM_C30 (antibody, V domains shown, IgG) VH: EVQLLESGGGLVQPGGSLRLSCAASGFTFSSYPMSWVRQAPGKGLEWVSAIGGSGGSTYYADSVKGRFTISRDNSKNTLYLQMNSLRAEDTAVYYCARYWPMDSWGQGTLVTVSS VL: EIVLTQSPGTLSLSPGERATLSCRASQSVSYMYLAWYQQKPGQAPRLLIYDASIRATGIPDRFSGSGSGTDFTLTISRLEPEDFAVYYCQQYKSWPLTFGQGTKVEIK : 0.000808

Return reported koff; argument: COMBO_Rd4_6nM_C07 (antibody, V domains shown, IgG) VH: EVQLLESGGGLVQPGGSLRLSCAASGFTFSSYPMSWVRQAPGKGLEWVSAIGGSGGSLPYADSVKGRFTISRDNSKNTLYLQMNSLRAEDTAVYYCARYWPMADWGQGTLVTVSS VL: EIVLTQSPGTLSLSPGERATLSCRASQPISSSYLAWYQQKPGQAPRLLMYDASIRATGIPDRFSGSGSGTDFTLTISRLEPEDFAVYYCQQYQGWPLTFGQGTKVEIK
0.000934
